pIC50: −log10 of the molar value.
# pIC50 against Aurora kinase A (Homo sapiens), merged from multiple literature sources

| Chemical smiles | pIC50 |
| --- | --- |
| COc1cc2c(Oc3ccc(NC(=O)Nc4ccc(C(F)(F)F)cc4)cc3)ccnc2cc1OCCC[C@@H](N)C(=O)OC1CCCC1 | > 5.70 |
| COc1ccc(-c2cnc3[nH]c(=O)n(Cc4ccccc4)c3n2)c(OC)c1 | < 6.00 |
| CC(C)(C)C(=O)Nc1ccccc1Nc1nc(Nc2ccc(N3CCOCC3)cc2)ncc1Cl | 8.38 |
| COc1cc2c(Sc3ccc(NC(=O)C4CC4)cc3)ccnc2cc1OCC[C@H](N)C(=O)O | 5.30 to 5.70 |

* * *

pIC50: −log10 of the molar value.
Study the reported pIC50 values for Aurora kinase A (Homo sapiens) given below; they originate from different publications.
Property label: pIC50

| Chemical smiles | Recorded value |
| --- | --- |
| CN(C)Cc1cccc(-c2ccnc(Nc3ccc(O)cc3)n2)c1 | 6.00 |
| COC(=O)Cc1nc2cc(Nc3ncc(Cl)c(NC4CCN(c5ccc(C#N)nn5)CC4)n3)ccn2n1 | < 6.52 |
| O=C1NCc2cccc(Nc3nc(Nc4ccc(N5CCNCC5)cc4OC(F)F)ncc3Cl)c21 | < 6.00 |
| CC(C)(O)Cc1nc2cc(Nc3ncc(Cl)c(NC4CCN(c5ccc(C#N)cn5)CC4)n3)ccn2n1 | 6.25 |
| CCN1C(=O)C(C)(C)c2cc3nc(-c4n[nH]c5ccccc45)[nH]c3cc21 | 7.00 to 9.00 |
| COc1cc2c(Oc3ccc(CC(=O)Nc4ccc(F)cc4F)cc3)ccnc2cc1OCC[C@H](N)C(=O)O | < 5.30 |
| Cc1c(-c2ccnc(Nc3ccc(-c4cccnc4)cc3)n2)c(C)n2c1C(=O)NCC2 | > 6.00 |
| CCN1CCN(c2ccc(Nc3ncc(Cl)c(Nc4cccc5c4C(=O)NC5)n3)cc2F)CC1 | 8.00 to 10.00 |

* * *

pIC50: −log10 of the molar value.
Field: pIC50. System: Aurora kinase A (Homo sapiens, UniProt O14965). Provenance: assorted publications.
Property label: pIC50

| Molecule | Assay target | Relation sign | Recorded value |
| --- | --- | --- | --- |
| Cc1cc(Nc2nn(Cc3ccccc3)c(=O)c3ccccc23)n[nH]1 | Aurora kinase A (Homo sapiens, UniProt O14965) | = | 7.19 |
| Cc1c(-c2ccnc(Nc3ccc(-c4csnn4)cc3)n2)c(C)n2c1C(=O)NCC2 | Aurora kinase A (Homo sapiens, UniProt O14965) | > | 7.00 |
| Cc1c[nH]c(C)c1-c1ccnc(Nc2cc(Cl)c(N3CCOCC3)c(Cl)c2)n1 | Aurora kinase A (Homo sapiens, UniProt O14965) | < | 5.00 |
| Cc1c(-c2ccnc(Nc3cccc(Cl)c3)n2)c(C)n2c1C(=O)NCC2 | Aurora kinase A (Homo sapiens, UniProt O14965) | > | 6.00 |
| Cc1cc(C(F)(F)F)nc(/C(C(N)=O)=C2/Nc3ccccc3S2)n1 | Aurora kinase A (Homo sapiens, UniProt O14965) | = | 8.00 |
| O=C(O)[C@]1(Cc2cccc(Nc3nccs3)n2)CC[C@@H](Sc2cccc(Cl)c2Cl)CC1 | Aurora kinase A (Homo sapiens, UniProt O14965) | = | 10.10 |
| O=C(c1cccc(C(F)(F)F)c1F)N1CCN(Cc2cncc(Nc3cc[nH]n3)n2)CC(O)C1 (centres unmarked) | Aurora kinase A (Homo sapiens, UniProt O14965) | = | 7.70 |
